Test system: antibodies in sera from SARS patients (sera 1a, 1b, 2, 6, 37, 62, London, SARS-yellow, SARS-green)
Assay type: binding, human
Value Type: Binding of serum London to linear peptides of protein X2
When you answer, write just the number.

In the examples that follow, each entry is paired with its recorded Binding of serum London to linear peptides of protein X2.
LQTLVLKMLHSSSLT = 0.4
VTAFQHQNSKKTTKL = 0.1

Reported Binding of serum London to linear peptides of protein X2, sequence YHITVSQIQLSLLKV : ____
0.4

Reported Binding of serum London to linear peptides of protein X2, sequence THITMTTVYHITVSQ : ____
0.4

Reported Binding of serum London to linear peptides of protein X2, sequence MLHSSSLTSLLKTHR : ____
0.6

Reported Binding of serum London to linear peptides of protein X2, sequence KFTTSLSLHKLLQTL : ____
0.5

Reported Binding of serum London to linear peptides of protein X2, sequence LTSLLKTHRMCKYTQ : ____
0.5
